Molecular target: CCKB receptor (Mus musculus, UniProt P56481)
Construct: The whole brains from male mice (CD1 22-25 g; Charles River) were removed; from tissue; host or cells: cerebral cortex membranes of male CD1 mice
Sequence (P56481 1-453): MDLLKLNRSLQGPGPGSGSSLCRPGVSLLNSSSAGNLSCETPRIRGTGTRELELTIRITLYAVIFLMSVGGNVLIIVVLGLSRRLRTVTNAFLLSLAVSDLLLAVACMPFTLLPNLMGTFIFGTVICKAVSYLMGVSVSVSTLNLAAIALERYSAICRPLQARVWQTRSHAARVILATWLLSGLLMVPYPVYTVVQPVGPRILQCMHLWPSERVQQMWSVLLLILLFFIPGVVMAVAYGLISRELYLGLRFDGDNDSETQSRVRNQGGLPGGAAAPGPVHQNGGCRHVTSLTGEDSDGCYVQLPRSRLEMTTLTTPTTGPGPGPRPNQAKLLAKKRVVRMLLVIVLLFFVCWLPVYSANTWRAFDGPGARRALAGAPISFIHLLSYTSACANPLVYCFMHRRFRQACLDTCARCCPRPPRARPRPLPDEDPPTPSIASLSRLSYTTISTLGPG
Assay: CCKB receptor radioligand binding assay in mouse cortical membranes
Conditions: [125I]-CCK8(S) 200 pM, 150 min at 21±3°, read-out: CCKB pKi (converted)
quantity kind: Ki (nM)

(a) O=C(O)c1cccc(NC(=O)c2nc(-c3ccc(Cl)cc3Cl)[nH]c2CCC23CC4CC(CC(C4)C2)C3)c1
(b) O=C(O)c1cccc(NC(=O)c2nc(-c3cccnc3)[nH]c2CCC23CC4CC(CC(C4)C2)C3)c1
(c) O=C(O)c1cc(NC(=O)c2nc(C3CCCCC3)[nH]c2CC2CCCCCC2)cc(C(=O)O)c1
(d) Cc1nc(C(=O)Nc2cccc(C(=O)O)c2)c(CCC23CC4CC(CC(C4)C2)C3)[nH]1
Rank the 4 compounds: largest Ki first, smallest last. Reply with the labels, ordered as the question asks.
d, c, b, a
(d: 2340 nM, c: 1580 nM, b: 603 nM, a: 151 nM)

====

biological target: CCKB receptor (Mus musculus, UniProt P56481); construct: The whole brains from male mice (CD1 22-25 g; Charles River) were removed; from tissue; host or cells: cerebral cortex membranes of male CD1 mice; assay: CCKB receptor radioligand binding assay in mouse cortical membranes; details: [125I]-CCK8(S) 200 pM, 150 min at 21±3°, read-out: CCKB pKi (converted)
quantity kind: Ki (nM)

Here's what some known entries look like.
molecule=Cc1ccc(NC(=O)c2nc(-c3cccc(Cl)c3Cl)[nH]c2CCC23CC4CC(CC(C4)C2)C3)cc1C(=O)O test_target="CCKB receptor (Mus musculus, UniProt P56481)" measured=145
molecule=O=C(O)c1cc(NC(=O)c2nc(-c3cccnc3)[nH]c2CC2CCCCCC2)cc(C(=O)O)c1 test_target="CCKB receptor (Mus musculus, UniProt P56481)" measured=4790
molecule=O=C(O)c1cccc(NC(=O)c2nc([C@@H]3CCCN3)[nH]c2CCC23CC4CC(CC(C4)C2)C3)c1 test_target="CCKB receptor (Mus musculus, UniProt P56481)" measured=4170
molecule=CCc1ccccc1-c1nc(C(=O)Nc2ccc(C)c(C(=O)O)c2)c(CCC23CC4CC(CC(C4)C2)C3)[nH]1 test_target="CCKB receptor (Mus musculus, UniProt P56481)" measured=12.3
molecule=Cc1cc(C)c(-c2nc(C(=O)Nc3ccc(C)c(C(=O)O)c3)c(CCC34CC5CC(CC(C5)C3)C4)[nH]2)c(C)c1 test_target="CCKB receptor (Mus musculus, UniProt P56481)" measured=2.88
molecule=COc1ccc(-c2nc(C(=O)Nc3cc(C(=O)O)cc(C(=O)O)c3)c(CC3CCCCCC3)[nH]2)cc1 test_target="CCKB receptor (Mus musculus, UniProt P56481)" measured=1480
molecule=O=C(O)c1cccc(NC(=O)c2nc(C3CCCCCCCCCCC3)[nH]c2CCC23CC4CC(CC(C4)C2)C3)c1 test_target="CCKB receptor (Mus musculus, UniProt P56481)" measured=1700
molecule=O=C(O)c1cc(NC(=O)c2nc[nH]c2CC2CCCCCC2)cc(C(=O)O)c1 test_target="CCKB receptor (Mus musculus, UniProt P56481)" measured=3890

(1) CN(C)c1cccc(-c2nc(C(=O)Nc3cccc(C(=O)O)c3)c(CCC34CC5CC(CC(C5)C3)C4)[nH]2)c1
(2) O=C(O)CCNC(=O)c1cc(-c2ccccc2)[nH]c1CC12CC3CC(CC(C3)C1)C2
Hi team, can someone confirm which has the larger Ki: 1 or 2 ? Thanks. Answer by stating the label of the chosen item.
2

(a) COc1ccc(NC(=O)c2nc(-c3ccccc3C)[nH]c2CCC23CC4CC(CC(C4)C2)C3)cc1C(=O)O
(b) O=C(O)c1cc(NC(=O)c2nc(-c3ccc4ccccc4c3)[nH]c2CCC23CC4CC(CC(C4)C2)C3)cc(C(=O)O)c1
// which entry reports the smaller Ki, a or b ? Answer by stating the label of the chosen item.
b

(I) O=C(Nc1cccc(CO)c1)c1nc(-c2ccccc2)[nH]c1CCC12CC3CC(CC(C3)C1)C2
(II) O=C(O)c1cc(NC(=O)c2nc(-c3ccccc3C(F)(F)F)[nH]c2CCC2CCCCCC2)cc(C(=O)O)c1
// which entry reports the smaller Ki, I or II ? Answer by stating the label of the chosen item.
I
(I: 269 nM, II: 4370 nM)

(a) O=C(O)c1cccc(NC(=O)c2nc(C3CCCCC3)[nH]c2CCc2ccccc2)c1
(b) O=C(O)c1cc(NC(=O)c2cc(-c3ccc4ccccc4c3)[nH]c2CC23CC4CC(CC(C4)C2)C3)cc(C(=O)O)c1
(c) Cc1ccccc1-c1nc(C(=O)Nc2cc(C(=O)O)cc(C(F)(F)F)c2)c(CCC23CC4CC(CC(C4)C2)C3)[nH]1
(d) Cc1ccc(C(=O)O)cc1NC(=O)c1nc(C2CCCCC2)[nH]c1CCC12CC3CC(CC(C3)C1)C2
Reorder: Ki, max to min. Reply with the labels, ordered as the question asks.
a, c, d, b

(1) Cc1ccccc1-c1nc(C(=O)Nc2cccc(C(=O)O)c2)c(CCC23CC4CC(CC(C4)C2)C3)n1C
(2) Cc1ccccc1-c1nc(C(=O)Nc2cccc(S(=O)(=O)NC(=O)c3ccccc3)c2)c(CCC23CC4CC(CC(C4)C2)C3)[nH]1
(3) O=C(O)c1cccc(NC(=O)c2nc(C3CC4C=CC3C4)[nH]c2CCC23CC4CC(CC(C4)C2)C3)c1 (racemic) [Example 117]
Put the items in order so that reported Ki rises from first to last. Reply with the labels, ordered as the question asks.
3, 2, 1
(3: 36.3 nM, 2: 117 nM, 1: 417 nM)

(A) CC1(C)C2CC=C(c3nc(C(=O)Nc4cccc(C(=O)O)c4)c(CCC45CC6CC(CC(C6)C4)C5)[nH]3)C1C2 (stereo not shown)
(B) Cc1ccc(NC(=O)c2nc(C3CCCCC3)[nH]c2CCC2C3CC4CC(C3)CC2C4)cc1C(=O)O (stereo not shown)
// which entry reports the smaller Ki, A or B ? Answer by stating the label of the chosen item.
B

(I) O=C(O)c1cc(NC(=O)c2cc(-c3ccccc3)[nH]c2CCC23CC4CC(CC(C4)C2)C3)cc(C(=O)O)c1
(II) O=C(O)c1cccc(NC(=O)c2nc(-c3c(Cl)cccc3Cl)[nH]c2CCC23CC4CC(CC(C4)C2)C3)c1
// which entry reports the smaller Ki, I or II ? Answer by stating the label of the chosen item.
II

(P) Cc1ccccc1-c1nc(C(=O)Nc2cccc(C(=O)O)c2)c(CC23CC4CC(CC(C4)C2)C3)[nH]1
(Q) CC1(C)C2CC[C@]1(C)C(c1nc(C(=O)Nc3cccc(C(=O)O)c3)c(CCC34CC5CC(CC(C5)C3)C4)[nH]1)C2 (mixture of isomers)
(R) O=C(Nc1cccc(-c2nnn[nH]2)c1)c1cc(-c2ccc3ccccc3c2)[nH]c1CC1CCCCCC1
Put the items in order so that reported Ki rises from first to last. Reply with the labels, ordered as the question asks.
Q, R, P

====

Target: gastrin receptor (Rattus norvegicus)
Construct: The stomach was excised and flushed with ca. 1 ml of unbuffered physiological saline solution; from tissue; host or cells: isolated whole stomach of immature rats (ca. 21 days old)
Sequence (P30553 1-452): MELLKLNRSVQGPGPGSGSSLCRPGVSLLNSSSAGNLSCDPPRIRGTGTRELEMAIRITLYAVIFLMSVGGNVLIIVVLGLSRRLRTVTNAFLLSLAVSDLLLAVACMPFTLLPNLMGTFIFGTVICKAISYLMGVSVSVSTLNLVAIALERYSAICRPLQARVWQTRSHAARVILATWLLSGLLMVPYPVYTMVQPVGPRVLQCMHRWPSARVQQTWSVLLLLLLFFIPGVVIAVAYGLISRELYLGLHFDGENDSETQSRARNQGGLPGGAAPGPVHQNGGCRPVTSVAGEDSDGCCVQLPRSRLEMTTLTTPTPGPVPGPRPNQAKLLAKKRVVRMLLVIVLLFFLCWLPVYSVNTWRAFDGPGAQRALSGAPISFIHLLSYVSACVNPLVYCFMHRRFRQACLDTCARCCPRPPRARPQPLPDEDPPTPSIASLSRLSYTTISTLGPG
Experiment: gastrin antagonist activity in immature rat stomach assay (pentagastrin dose-response, acid secretion)
Details: isolated immature rat stomach, cumulative pentagastrin dose-response curves, read-out: Gastrin pKb (converted)
quantity kind: Kb (nM)

Here's what some known entries look like.
molecule="C[C@@H](NC(=O)c1cccc(NC(=O)c2nc(C3CCCCC3)[nH]c2CCC23CC4CC(CC(C4)C2)C3)c1)C(=O)O [Example 273]" test_target="gastrin receptor (Rattus norvegicus)" quantity_kind=Kb measured=49
molecule="Cc1ccccc1-c1nc(CCc2cccc(C(=O)O)c2)c(CCC23CC4CC(CC(C4)C2)C3)n1C [Example 278]" test_target="gastrin receptor (Rattus norvegicus)" quantity_kind=Kb measured=64.6

(1) CC1(c2nc(C(=O)Nc3ccc(F)c(C(=O)O)c3)c(CCC34CC5CC(CC(C5)C3)C4)[nH]2)CCCCC1 [Example 201]
(2) Cc1ccc(NC(=O)c2nc(-c3ccc(F)cc3F)[nH]c2CCC23CC4CC(CC(C4)C2)C3)cc1C(=O)O [Example 152]
(3) Cc1cc(C)c(-c2nc(C(=O)Nc3ccc(F)c(C(=O)O)c3)c(CCC34CC5CC(CC(C5)C3)C4)[nH]2)c(C)c1 [Example 156]
Reorder: Kb, max to min. Reply with the labels, ordered as the question asks.
3, 2, 1

(P) O=C(O)CCc1cc(NC(=O)c2nc(C3CCCCC3)[nH]c2CCC23CC4CC(CC(C4)C2)C3)ccc1Cl [Example 271]
(Q) O=C(O)c1cccc(NC(=O)c2nc(-c3cccnc3)[nH]c2CCC23CC4CC(CC(C4)C2)C3)c1 [Example 177]
(R) CCC(CC)c1nc(C(=O)Nc2cccc(C(=O)O)c2)c(CCC23CC4CC(CC(C4)C2)C3)[nH]1 [Example 112]
(S) O=C(O)Cc1cccc(NC(=O)c2nc(C3CCCCCC3)[nH]c2COC23CC4CC(CC(C4)C2)C3)c1 [Example 229]
Put the items in order so that reported Kb rises from first to last. Reply with the labels, ordered as the question asks.
R, S, Q, P
(R: 9.33 nM, S: 35.5 nM, Q: 151 nM, P: 355 nM)

(I) Cc1ccc(NC(=O)c2nc([C@@H]3CCCN3C)[nH]c2CCC23CC4CC(CC(C4)C2)C3)cc1C(=O)O [Example 138]
(II) O=C(O)c1cccc(NC(=O)c2nc(C3CCCCC3)[nH]c2CCC23CCC(CC2)CC3)c1 [Example 175]
Hi team, can someone confirm which has the larger Kb: I or II ? Thanks. Answer by stating the label of the chosen item.
I
